Provide the reported pIC50 of each item.
Biological target: UniProtKB Q07343
Sequence (Q07343 whole entry): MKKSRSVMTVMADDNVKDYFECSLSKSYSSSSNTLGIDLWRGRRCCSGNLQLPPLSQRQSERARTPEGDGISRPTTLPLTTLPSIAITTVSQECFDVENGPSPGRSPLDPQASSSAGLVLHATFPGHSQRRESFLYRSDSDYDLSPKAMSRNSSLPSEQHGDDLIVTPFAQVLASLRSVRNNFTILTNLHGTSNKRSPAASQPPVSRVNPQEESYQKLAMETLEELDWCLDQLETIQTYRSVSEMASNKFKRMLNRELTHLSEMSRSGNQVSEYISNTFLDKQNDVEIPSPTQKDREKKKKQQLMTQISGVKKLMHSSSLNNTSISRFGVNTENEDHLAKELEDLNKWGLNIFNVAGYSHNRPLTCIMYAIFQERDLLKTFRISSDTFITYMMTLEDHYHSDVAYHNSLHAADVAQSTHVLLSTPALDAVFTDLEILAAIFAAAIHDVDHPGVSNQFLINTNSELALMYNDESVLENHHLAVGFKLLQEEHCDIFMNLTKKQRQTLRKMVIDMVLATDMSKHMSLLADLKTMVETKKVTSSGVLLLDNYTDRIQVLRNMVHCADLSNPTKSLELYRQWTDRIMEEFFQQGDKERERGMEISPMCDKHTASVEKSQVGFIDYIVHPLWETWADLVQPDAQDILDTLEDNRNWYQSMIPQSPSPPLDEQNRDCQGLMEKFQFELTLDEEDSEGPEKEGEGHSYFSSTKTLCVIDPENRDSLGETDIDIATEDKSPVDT
Assay: In-vitro real-time enzyme-coupled spectrophotometric assay for PDE4 enzymes (h4B1)
Details: PDE4 isoform h4B1; enzyme-coupled NADH assay, absorbance at 340 nm
pIC50: −log10 of the molar value.

Some compounds with recorded pIC50:
Ask: Bench note: what pIC50 did COc1ccc(Cc2ccc(N)nc2)cc1Oc1cccc(Cl)c1 show?
Result: 4.70 to 4.96

Ask: Next entry: COc1ccc(Cc2ccc(O)cc2)cc1Oc1cccc(Cl)c1
Result: < 4.68

Ask: Next entry: COc1ccc(Cc2ccc(F)cc2)c(F)c1Oc1cccc(Cl)c1
Result: 5.00 to 6.00

Ask: Next entry: COc1ccc(Cc2ccc(F)cc2)c(F)c1Oc1cccc([N+](=O)[O-])c1
Result: < 4.68

Ask: Next entry: COc1ccc(Cc2ccc(N)cc2)cc1Oc1cccc(Cl)c1
Result: 5.00 to 6.00

Report pIC50 for every entry below.
1. COc1ccc(Cc2ccc(NS(C)(=O)=O)nc2)cc1Oc1cccc(Cl)c1
2. COc1ccc(Cc2ccc(NC(N)=O)nc2)cc1Oc1cccc(Cl)c1
3. COc1ccc(Cc2ccc(F)cc2)c(F)c1Oc1cccc(N)c1
4. COc1ccc(Cc2ccc(NC(N)=O)cc2)c(F)c1Oc1ccccn1

Result:
1. < 4.68
2. 5.00 to 6.00
3. < 4.68
4. < 4.68

Values were extracted from patent US8877816B2.
